For Adenosine receptor A2a (Rattus norvegicus), measured Ki is reported for the entries below.
Numbers only, in nM.

> print(dat)
                            compound.smiles  result.value
1  CCCC/C=C/c1nc(N)c2ncn([C@@H]3O[C@H](CO)[C@@H](O)[C@H]3O)c2n1            14
2  CCNC(=O)[C@H]1O[C@@H](n2cnc3c(N)nc(/C=C/CCCc4ccccc4)nc32)[C@H](O)[C@@H]1O           3.5
3  CCNC(=O)[C@H]1O[C@@H](n2cnc3c(N)nc(/C=C/c4ccccc4)nc32)[C@H](O)[C@@H]1O           234

[Q] Quote Ki reported for `CCNC(=O)[C@H]1O[C@@H](n2cnc3c(N)nc(/C=C\CCCc4ccccc4)nc32)[C@H](O)[C@@H]1O` please.
[A] 51

====

Reported values: EC50 for Adenosine receptor A2a (Rattus norvegicus), one per item.
Answers are plain numbers, in nM.

> print(dat)
                                   compound  result.value
1  CCNC(=O)[C@H]1O[C@@H](n2cnc3c(N)nc(/C=C/c4ccccc4)nc32)[C@H](O)[C@@H]1O           194
2  CCCC/C=C/c1nc(N)c2ncn([C@@H]3O[C@H](C(=O)NCC)[C@@H](O)[C@H]3O)c2n1           594
3  CCCC/C=C\c1nc(N)c2ncn(C3O[C@H](C(=O)NCC)[C@@H](O)[C@H]3O)c2n1 (some centres not stated)           676
4  CCNC(=O)[C@H]1O[C@@H](n2cnc3c(N)nc(/C=C/CCCc4ccccc4)nc32)[C@H](O)[C@@H]1O           576

Then there is this compound:
[Q] Input `CCCCCCc1nc(N)c2ncn([C@@H]3O[C@H](C(=O)NCC)[C@@H](O)[C@H]3O)c2n1` , output reported EC50.
[A] 1

====

Target protein (sequence): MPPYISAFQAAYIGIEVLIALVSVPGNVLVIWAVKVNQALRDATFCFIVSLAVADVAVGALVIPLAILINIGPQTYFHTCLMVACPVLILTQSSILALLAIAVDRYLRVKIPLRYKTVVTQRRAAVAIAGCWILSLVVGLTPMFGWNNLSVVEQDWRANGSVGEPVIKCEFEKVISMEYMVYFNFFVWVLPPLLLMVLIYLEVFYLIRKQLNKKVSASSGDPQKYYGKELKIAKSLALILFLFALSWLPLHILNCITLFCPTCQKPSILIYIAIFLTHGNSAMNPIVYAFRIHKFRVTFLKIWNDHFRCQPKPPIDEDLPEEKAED
measured.quantity: pKi
Answers are plain numbers, as −log10 of the molar value.

Worked cases, answers included:
> print(dat)
                            compound.smiles  measured.quantity  result.value
1  CCNC(=O)[C@H]1O[C@@H](n2cnc3c(N)nc(/C=C/CCCc4ccccc4)nc32)[C@H](O)[C@@H]1O                pKi          5.99
2  CCCC/C=C/c1nc(N)c2ncn([C@@H]3O[C@H](CO)[C@@H](O)[C@H]3O)c2n1                pKi          6.48

Turning to the following molecule.
[Q] Read off the recorded pKi for `CCCC/C=C/c1nc(N)c2ncn([C@@H]3O[C@H](C(=O)NCC)[C@@H](O)[C@H]3O)c2n1`
[A] 6.60

Values compiled from ChEMBL document CHEMBL1129447.
